Biological target: T1, His-SND1 (16-339), SN1/2 domains, wild type (human, UniProt Q7KZF4 16-339)
T1 construct: also called His6-SND1 harboring the SN1/2 domains; not shown: N-terminal His tag (His6, His8 or His) with TEV site, pQlink vector
T1 sequence: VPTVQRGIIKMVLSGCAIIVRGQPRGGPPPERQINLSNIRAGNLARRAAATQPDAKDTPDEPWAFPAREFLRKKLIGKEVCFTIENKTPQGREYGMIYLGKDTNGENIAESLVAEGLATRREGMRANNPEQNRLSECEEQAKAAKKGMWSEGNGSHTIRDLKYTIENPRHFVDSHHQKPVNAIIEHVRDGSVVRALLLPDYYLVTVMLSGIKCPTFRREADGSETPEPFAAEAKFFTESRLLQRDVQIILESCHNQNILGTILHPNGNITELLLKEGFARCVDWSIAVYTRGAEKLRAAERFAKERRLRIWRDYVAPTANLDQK
Test: GST pull-down on glutathione resin, SDS-PAGE, Coomassie blue; normalised percentage of binding, mean±SEM of three experiments
Below: a set of entries, each annotated with reported % Maximum binding.
Numeric answer only, unit % assumed.

GST-MTDH (364-582) W394A (other, not shown: N-terminal GST tag with TEV site, pQlink vector) YQWDVSRNQPYIDDEWSGLNGLSSADPNSDANAPAEEWGNWVDEERASLLKSQEPIPDDQKVSDDDKEKGEGALPTGKSKKKKKKKKKQGEDNSTAQDTEELEKEIREDLPVNTSKTRPKQEKAFSLKTISTSDPAEVLVKNSQPIKTLPPATSTEPSVILSKSDSDKSSSQVPPILQETDKSKSNTKQNSVPPSQTKSETSWESPKQIKKKKKARRET ... 1

Fill in % Maximum binding for record GST-MTDH (364-582) E400A (other, not shown: N-terminal GST tag with TEV site, pQlink vector) YQWDVSRNQPYIDDEWSGLNGLSSADPNSDWNAPAEAWGNWVDEERASLLKSQEPIPDDQKVSDDDKEKGEGALPTGKSKKKKKKKKKQGEDNSTAQDTEELEKEIREDLPVNTSKTRPKQEKAFSLKTISTSDPAEVLVKNSQPIKTLPPATSTEPSVILSKSDSDKSSSQVPPILQETDKSKSNTKQNSVPPSQTKSETSWESPKQIKKKKKARRET
80
